Source of measurements: patent US11306064B2

Answer each item with its documented IC50.
Tested on: HepaRG cells
method-summary: HepaRG-based assay: 3H-taurocholic acid uptake in differentiated HepaRG cells
Type: cell-based
study-conditions: Homo sapiens, HepaRG, 0.3 μM 3H-taurocholic acid and 7.5 μM cold taurocholic acid, 30 minutes
Numbers only, in nM.

Some molecules with recorded IC50:
1) CCCCC1(CC)CN(c2ccccc2)c2cc(Cl)c(O/C=C(\F)C(=O)O)cc2S(=O)(=O)C1 (single isomer, unassigned) [Example 47] ... 362
2) CCCCC1(CCCC)CN(c2ccc(NC(=O)C3CCCC3)cc2)c2cc(SC)c(O/C=C/C(=O)O)cc2S(=O)(=O)C1 ... 592
3) CCC1(CC)CN(c2ccccc2)c2cc(Br)c(O/C=C(\F)C(=O)O)cc2S(=O)(=O)C1 ... 175
4) CCCCC1(CCCC)CN(c2ccccc2)c2cc(C3CC3)c(O/C=C/C(=O)O)cc2S(=O)(=O)C1 ... 3190
5) CCCCC1(CCCC)CN(c2ccc(NC(=O)OC(C)(C)C)cc2)c2cc(SC)c(O/C=C/C(=O)O)cc2S(=O)(=O)C1 ... 885

Hi, could you look up IC50 for each item in my list?
1. CCCC[C@]1(CC)CN(c2ccccc2)c2cc(SC)c(O/C=C(\F)C(=O)O)cc2S(=O)(=O)N1C (single isomer, unassigned)
2. CCCCC1(CC)CN(c2ccccc2)c2cc(Cl)c(O/C=C/C(=O)O)cc2S(=O)(=O)C1 (racemic) [Example 49]

1. 1450
2. 570

For each of the items listed, what is its IC50?
1. CCCC[C@@]1(CC)CN(c2ccccc2)c2cc(SC)c(O/C=C(\F)C(=O)O)cc2S(=O)(=O)N1 (single isomer, unassigned)
2. CCCCC1(CC)CN(c2ccccc2)c2cc(F)c(O/C=C(\F)C(=O)O)cc2S(=O)(=O)C1 (stereo not drawn)
3. CCCCC1(CC)CN(c2ccccc2)c2ccc(O/C=C/C(=O)O)cc2S(=O)(=O)C1 (stereo not drawn)
4. CCCCOC(=O)Nc1ccc(N2CC(CCCC)(CCCC)CS(=O)(=O)c3cc(O/C=C/C(=O)O)c(SC)cc32)cc1

1. 1110
2. 785
3. 5230
4. 666

Need IC50 for each of these molecules.
1. CCCCC1(CC)CN(c2ccccc2)c2cc(SCC)c(O/C=C/C(=O)O)cc2S(=O)(=O)C1 (stereo not drawn)
2. CCCC[C@@]1(CC)CN(c2ccccc2)c2cc(SC)c(O/C=C(\F)C(=O)O)cc2S(=O)(=O)N1C (single isomer, unassigned)
3. CCCCC1(CC)CN(c2ccccc2)c2cc(SC)c(O/C=C/C(=O)O)cc2S(=O)(=O)C1 (single isomer, unassigned) [Example 18]
4. CCCCC1(CCCC)CN(c2ccc(NC(=O)CC)cc2)c2cc(SC)c(O/C=C(\F)C(=O)O)cc2S(=O)(=O)C1
5. CCCCC1(CC)CN(c2ccccc2)c2cc(SC)c(O/C=C(\F)C(=O)O)cc2S(=O)(=O)C1 (single isomer, unassigned) [Example 42]
6. CCCCC1(CCCC)CN(c2ccccc2)c2cc(OC)c(O/C=C/C(=O)O)cc2S(=O)(=O)C1
7. CCCCC1(CCCC)CN(c2ccccc2)c2cc(SCC)c(O/C=C(\F)C(=O)O)cc2S(=O)(=O)C1

1: 766; 2: 325; 3: 1260; 4: 296; 5: 378; 6: 5160; 7: 716

Batch lookup, IC50 per entry.
1. CCC1(CC)CN(c2ccc(NCc3ccccc3)cc2)c2cc(SC)c(O/C=C(\F)C(=O)O)cc2S(=O)(=O)C1
2. CCCCC1(CC)CN(c2ccccc2)c2cc(OC)c(O/C=C/C(=O)O)cc2S(=O)(=O)C1 (stereo not drawn)
3. CCCCC1(CCCC)CN(c2ccccc2)c2cc(CC)c(O/C=C/C(=O)O)cc2S(=O)(=O)C1
4. CCCCC1(CCCC)CN(c2ccccc2)c2ccc(O/C=C(\F)C(=O)O)cc2S(=O)(=O)C1
5. CCCCC1(CCCC)CN(c2ccc(F)c(F)c2)c2cc(SC)c(O/C=C(\F)C(=O)O)cc2S(=O)(=O)C1

[518, 4460, 2610, 3160, 365]

Please supply IC50 for each of the following items, keeping them in order.
1. CCCC[C@@]1(CC)CN(c2ccccc2)c2cc(Br)c(O/C=C(\F)C(=O)O)cc2S(=O)(=O)C1 (single isomer, unassigned)
2. CCCCC1(CC)CN(c2ccccc2)c2cc(Br)c(O/C=C(\F)C(=O)O)cc2S(=O)(=O)N1C (stereo not drawn)

[265, 246]

* * *

assay-target: Human LBAT (Homo sapiens)
Construct: kept under Geneticin selection
Sequence (Q14973 whole entry): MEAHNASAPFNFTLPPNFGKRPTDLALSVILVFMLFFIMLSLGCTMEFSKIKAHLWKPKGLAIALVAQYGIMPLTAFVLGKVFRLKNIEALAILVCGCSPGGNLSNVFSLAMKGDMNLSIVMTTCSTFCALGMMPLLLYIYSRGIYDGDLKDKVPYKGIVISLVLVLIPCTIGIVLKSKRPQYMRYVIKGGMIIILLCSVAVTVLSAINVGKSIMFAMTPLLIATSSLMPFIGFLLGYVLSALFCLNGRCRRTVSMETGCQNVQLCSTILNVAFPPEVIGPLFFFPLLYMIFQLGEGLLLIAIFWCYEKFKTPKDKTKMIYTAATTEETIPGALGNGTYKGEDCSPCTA
method-summary: LBAT (h/m) assay: 3H-taurocholic acid uptake in human LBAT-overexpressing cells
study-conditions: 0.3 μM 3H-taurocholic acid and 7.5 μM cold taurocholic acid, 20 minutes, read-out: hLBAT IC50
Kindly state log10 IC50 for each of the entries shown.
The base-10 logarithm of IC50, taken with IC50 in nM, is what appears here.

A selection of reference data follows.
1) CCCCC1(CC)CN(c2ccccc2)c2cc(SC)c(O/C=C/C(=O)O)cc2S(=O)(=O)C1 (single isomer, unassigned) [Example 17] ... 2.06
2) CCCC[C@]1(CC)CN(c2ccccc2)c2cc(SC)c(O/C=C/C(=O)O)cc2S(=O)(=O)N1 (single isomer, unassigned) ... 1.98
3) CCCCC1(CC)CN(c2ccccc2)c2cc(Cl)c(O/C=C(\F)C(=O)O)cc2S(=O)(=O)C1 (single isomer, unassigned) [Example 48] ... 0.91
4) CCCCC1(CCCC)CN(c2ccccc2)c2cc(SC)c(O/C=C(\F)C(=O)O)cc2S(=O)(=O)C1 ... 1.65

Working through the 2 molecules below one at a time, give log10 IC50 for each.
1. CCC1(CC)CN(c2ccccc2)c2cc(Br)c(O/C=C/C(=O)O)cc2S(=O)(=O)C1
2. CCCC[C@@]1(CC)CN(c2ccccc2)c2cc(SC)c(O/C=C(\F)C(=O)O)cc2S(=O)(=O)N1C (single isomer, unassigned)

1: 2.00; 2: 0.64

Recorded log10 IC50 of CCCCC1(CC)CN(c2ccccc2)c2cc(SC)c(O/C=C/C(=O)O)cc2S(=O)(=O)C1 (racemic) [Example 16] , please.
1.91

* * *

assay-target: Human ASBT (Homo sapiens)
Construct: kept under Puromycin selection
Sequence (Q12908 whole entry): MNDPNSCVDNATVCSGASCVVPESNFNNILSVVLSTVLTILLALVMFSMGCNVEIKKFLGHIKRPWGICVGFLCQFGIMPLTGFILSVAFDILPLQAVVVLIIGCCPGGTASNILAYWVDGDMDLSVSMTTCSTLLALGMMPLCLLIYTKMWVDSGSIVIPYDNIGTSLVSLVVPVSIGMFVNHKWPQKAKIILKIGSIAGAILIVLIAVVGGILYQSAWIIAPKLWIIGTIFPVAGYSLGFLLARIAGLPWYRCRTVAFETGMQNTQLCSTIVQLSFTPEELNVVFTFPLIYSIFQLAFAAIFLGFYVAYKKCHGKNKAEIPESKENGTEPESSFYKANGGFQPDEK
method-summary: ASBT (h/m) assay: 3H-taurocholic acid uptake in human ASBT-overexpressing cells
study-conditions: 0.25 μM 3H-taurocholic acid and 5 μM cold taurocholic acid, 20 minutes, read-out: hASBT IC50
pIC50: −log10 of the molar value.
Kindly return Criterion met if reported pIC50 is no lower than 7; return Criterion not met if it is lower.

1. CCCCC1(CC)CN(c2ccccc2)c2cc(I)c(O/C=C/C(=O)O)cc2S(=O)(=O)C1 (single isomer, unassigned) [Example 58] ... Criterion met
2. CCCCC1(CC)CN(c2ccccc2)c2cc(Cl)c(O/C=C(\F)C(=O)O)cc2S(=O)(=O)C1 (single isomer, unassigned) [Example 47] ... Criterion not met
3. CCCCC1(CC)CN(c2ccc(C(=O)NC(C)(C)C)cc2)c2cc(SC)c(O/C=C/C(=O)O)cc2S(=O)(=O)C1 (centres unmarked) ... Criterion not met
4. CCC1(CC)CN(c2ccc(NCc3ccccc3)cc2)c2cc(SC)c(O/C=C(\F)C(=O)O)cc2S(=O)(=O)C1 ... Criterion not met
5. CCCC[C@]1(CC)CN(c2ccccc2)c2cc(SC)c(O/C=C(\F)C(=O)O)cc2S(=O)(=O)N1C (single isomer, unassigned) ... Criterion not met

Determine whether this compound has pIC50 no lower than 7: CCCCC1(CCCC)CN(c2ccc(NS(=O)(=O)C3CC3)cc2)c2cc(SC)c(O/C=C/C(=O)O)cc2S(=O)(=O)C1
Criterion not met

Test whether the compound CCCCC1(CCCC)CN(c2ccc(NC(=O)OC(C)(C)C)cc2)c2cc(SC)c(O/C=C(\F)C(=O)O)cc2S(=O)(=O)C1 records pIC50 of 7 or higher.
Criterion not met

// inclusive: pIC50 at least 7? input: CCCCC1(CCCC)CN(c2ccccc2)c2cc(SCC)c(O/C=C/C(=O)O)cc2S(=O)(=O)C1
Criterion not met

Could you tell me if the measured pIC50 of CCCCC1(CC)CN(c2ccccc2)c2cc(N(C)C)c(O/C=C/C(=O)O)cc2S(=O)(=O)C1 (centres unmarked) reaches 7 or more?
Criterion met

Does the compound CCCCC1(CCCC)CN(c2ccc(F)c(F)c2)c2cc(SC)c(O/C=C(\F)C(=O)O)cc2S(=O)(=O)C1 have recorded pIC50 that is 7 or more?
Criterion met

Record CCCCC1(CCCC)CN(c2ccccc2)c2cc(N(C)C)c(O/C=C(\F)C(=O)O)cc2S(=O)(=O)N1 ; criterion: pIC50 no lower than 7. Met?
Criterion met

Decide: pIC50 of CCCCC1(CCCC)CN(c2ccccc2)c2cc(SC)c(O/C=C(\C)C(=O)O)cc2S(=O)(=O)N1 >= 7?
Criterion met
